Please respond with reported Ki for every item in the list.
EXPERIMENTAL_DETAILS: Displacement of [3H]IMI from nicotinic acetylcholine receptor in Drosophila melanogaster brain
Numbers only, in µM.

Use these answered entries as a reference point.
compound=CCCN1CCN(Cc2ccc(Cl)nc2)/C1=N/[N+](=O)[O-] readout_units=µM quantitative_result=0.89
compound=O=[N+]([O-])/N=C1\NCCN1CCCCF readout_units=µM quantitative_result=3.5
compound=CCCN1CCN/C1=N\[N+](=O)[O-] readout_units=µM quantitative_result=12.8
compound="CN/C(=N/CC1CCOC1)N[N+](=O)[O-] (configuration not stated)" readout_units=µM quantitative_result=0.076
compound=C/C(CCN1CCN/C1=N\[N+](=O)[O-])=N\O readout_units=µM quantitative_result=40.5
compound=O=[N+]([O-])/N=C1\NCCN1C[C@H]1C[C@@H]2O[C@@H]2C1 readout_units=µM quantitative_result=14.8
compound=CC(=O)CCN1CCN(Cc2ccc(Cl)nc2)/C1=N/[N+](=O)[O-] readout_units=µM quantitative_result=6.1
compound=O=[N+]([O-])/N=C1\NCCN1Cc1ccc(Cl)nc1 readout_units=µM quantitative_result=0.003

Quick one: give me Ki for each item below, same order please.
1. O=[N+]([O-])/N=C1\NCCN1CCCCl
2. O=[N+]([O-])/N=C1\NCCN1CC1CCOC1 (configuration not stated)
3. CO/N=C(\C)CCN1CCN/C1=N\[N+](=O)[O-]

Out:
3.6
0.11
61.2

###

Please respond with reported pKi for every item in the list.
EXPERIMENTAL_DETAILS: Displacement of [3H]IMI from nicotinic acetylcholine receptor in Drosophila melanogaster brain
Numbers only, as −log10 of the molar value.

compound=CC(=O)CCN1CCN/C1=N\[N+](=O)[O-] readout_kind=pKi quantitative_result=5.92

Quick one: give me pKi for each item below, same order please.
1. O=[N+]([O-])/N=C1\N(CCCF)CCN1Cc1ccc(Cl)nc1
2. CC(=O)O/C(=C\CN1CCN/C1=N\[N+](=O)[O-])C(F)(F)F
3. CN/C(=N\[N+](=O)[O-])NCc1cnc(Cl)s1
4. O=[N+]([O-])/N=C1\NCCN1C[C@@H]1C[C@@H]2O[C@@H]2C1
5. O=[N+]([O-])/N=C1\N(CCC(O)C(F)(F)F)CCN1Cc1ccc(Cl)nc1 (stereo not given)

Out:
6.13
4.79
8.40
5.09
5.30

###

EXPERIMENTAL_DETAILS: Displacement of [3H]IMI from nicotinic acetylcholine receptor in Drosophila melanogaster brain
READOUT_KIND: Ki (µM)
Numbers only, in µM.

Use these answered entries as a reference point.
molecule=O=[N+]([O-])/N=C1\NCCN1CCCF quantitative_result=1.7
molecule="O=[N+]([O-])/N=C1\\NCCN1CCC(O)C(F)(F)F (centres undefined)" quantitative_result=18.1

Now for a further molecule.
In: // lookup Ki for O=[N+]([O-])/N=C1\NCCN1CC1CC=CC1
Out: 20.1
